target: CXCR4 receptor (human, UniProt P61073 1-352); experiment: cell-based or functional assay
Sequence (P61073 whole entry): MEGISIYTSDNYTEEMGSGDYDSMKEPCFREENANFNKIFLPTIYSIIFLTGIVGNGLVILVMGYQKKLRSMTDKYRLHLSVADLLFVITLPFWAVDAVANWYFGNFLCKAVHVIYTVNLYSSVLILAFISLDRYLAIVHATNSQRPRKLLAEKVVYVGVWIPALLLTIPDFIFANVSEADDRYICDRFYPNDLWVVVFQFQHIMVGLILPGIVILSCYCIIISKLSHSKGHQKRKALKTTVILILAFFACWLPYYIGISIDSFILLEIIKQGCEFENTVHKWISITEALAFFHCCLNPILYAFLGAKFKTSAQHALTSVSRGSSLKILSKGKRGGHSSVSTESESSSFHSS
* marks the point of attachment. Palmitoyl = CCCCCCCCCCCCCCCC(=O)*
quantity_measured: AUC (% of), CHTX, SUP B-15, 1.0 uM (%)
Report as a plain number; the unit % is understood.

Palmitoyl-KKLRSMTDKYR-NH2 (SMILES CCCCCCCCCCCCCCCC(=O)N[C@@H](CCCCN)C(=O)N[C@@H](CCCCN)C(=O)N[C@@H](CC(C)C)C(=O)N[C@@H](CCCNC(=N)N)C(=O)N[C@@H](CO)C(=O)N[C@@H](CCSC)C(=O)N[C@H](C(=O)N[C@@H](CC(=O)O)C(=O)N[C@@H](CCCCN)C(=O)N[C@@H](Cc1ccc(O)cc1)C(=O)N[C@@H](CCCNC(=N)N)C(N)=O)[C@@H](C)O) [CXCR4 i1 loop compound 45]	178
Palmitoyl-KKLRSMTDKYRL-NH2 (SMILES CCCCCCCCCCCCCCCC(=O)N[C@@H](CCCCN)C(=O)N[C@@H](CCCCN)C(=O)N[C@@H](CC(C)C)C(=O)N[C@@H](CCCNC(=N)N)C(=O)N[C@@H](CO)C(=O)N[C@@H](CCSC)C(=O)N[C@H](C(=O)N[C@@H](CC(=O)O)C(=O)N[C@@H](CCCCN)C(=O)N[C@@H](Cc1ccc(O)cc1)C(=O)N[C@@H](CCCNC(=N)N)C(=O)N[C@@H](CC(C)C)C(N)=O)[C@@H](C)O) [Compound No. 44 (Pal-KKLRSMTDKYRL-amide)]	25.9

Now consider the entry below.
# binder Palmitoyl-MGYQKKLRSMTDKYRL-NH2 (SMILES CCCCCCCCCCCCCCCC(=O)N[C@@H](CCSC)C(=O)NCC(=O)N[C@@H](Cc1ccc(O)cc1)C(=O)N[C@@H](CCC(N)=O)C(=O)N[C@@H](CCCCN)C(=O)N[C@@H](CCCCN)C(=O)N[C@@H](CC(C)C)C(=O)N[C@@H](CCCNC(=N)N)C(=O)N[C@@H](CO)C(=O)N[C@@H](CCSC)C(=O)N[C@H](C(=O)N[C@@H](CC(=O)O)C(=O)N[C@@H](CCCCN)C(=O)N[C@@H](Cc1ccc(O)cc1)C(=O)N[C@@H](CCCNC(=N)N)C(=O)N[C@@H](CC(C)C)C(N)=O)[C@@H](C)O) [Compound No. 38 (Pal-MGYQKKLRSMTDKYRL-amide)] ; its AUC (% of), CHTX, SUP B-15, 1.0 uM = 32.4
